Each item that follows carries a reported IC90.
# Subject Of Test: telomerase (Homo sapiens, UniProt O14746)
# Construct: A549 cells (human epithelial cell lung carcinoma, ATCC, Manassas, VA) were lysed in; host or cells: A549 cell lysate (CHAPS extract, 5 µg total protein)
# Sequence (O14746 whole entry): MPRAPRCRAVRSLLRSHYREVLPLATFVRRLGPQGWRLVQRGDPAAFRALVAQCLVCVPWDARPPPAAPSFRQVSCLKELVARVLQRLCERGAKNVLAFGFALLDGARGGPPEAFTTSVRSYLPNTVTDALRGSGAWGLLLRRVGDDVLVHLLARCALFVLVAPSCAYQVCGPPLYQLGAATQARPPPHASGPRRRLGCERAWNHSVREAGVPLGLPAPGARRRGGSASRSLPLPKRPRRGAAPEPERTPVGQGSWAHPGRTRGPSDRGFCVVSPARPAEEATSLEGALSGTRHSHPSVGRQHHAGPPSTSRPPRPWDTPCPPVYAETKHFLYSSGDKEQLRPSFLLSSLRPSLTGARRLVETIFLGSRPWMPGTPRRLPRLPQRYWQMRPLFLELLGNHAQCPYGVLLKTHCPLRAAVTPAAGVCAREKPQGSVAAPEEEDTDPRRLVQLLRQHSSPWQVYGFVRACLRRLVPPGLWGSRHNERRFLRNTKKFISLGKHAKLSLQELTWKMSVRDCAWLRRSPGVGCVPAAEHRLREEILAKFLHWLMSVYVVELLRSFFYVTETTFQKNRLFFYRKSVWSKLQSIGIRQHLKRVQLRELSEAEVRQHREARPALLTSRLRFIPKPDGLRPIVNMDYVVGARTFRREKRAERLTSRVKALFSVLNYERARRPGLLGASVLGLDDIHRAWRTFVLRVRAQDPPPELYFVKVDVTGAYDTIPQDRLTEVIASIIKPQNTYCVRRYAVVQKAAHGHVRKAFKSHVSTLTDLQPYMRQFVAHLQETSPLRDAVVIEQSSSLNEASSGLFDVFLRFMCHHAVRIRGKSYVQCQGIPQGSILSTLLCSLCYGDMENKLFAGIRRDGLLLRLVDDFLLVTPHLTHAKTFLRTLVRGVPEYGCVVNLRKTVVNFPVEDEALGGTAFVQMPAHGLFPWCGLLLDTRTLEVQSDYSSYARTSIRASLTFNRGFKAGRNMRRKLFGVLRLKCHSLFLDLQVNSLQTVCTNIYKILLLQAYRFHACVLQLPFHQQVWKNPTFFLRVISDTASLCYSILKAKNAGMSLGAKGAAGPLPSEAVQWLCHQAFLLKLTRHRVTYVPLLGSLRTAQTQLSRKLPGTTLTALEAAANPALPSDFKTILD
# Sequence (O60832 whole entry partner): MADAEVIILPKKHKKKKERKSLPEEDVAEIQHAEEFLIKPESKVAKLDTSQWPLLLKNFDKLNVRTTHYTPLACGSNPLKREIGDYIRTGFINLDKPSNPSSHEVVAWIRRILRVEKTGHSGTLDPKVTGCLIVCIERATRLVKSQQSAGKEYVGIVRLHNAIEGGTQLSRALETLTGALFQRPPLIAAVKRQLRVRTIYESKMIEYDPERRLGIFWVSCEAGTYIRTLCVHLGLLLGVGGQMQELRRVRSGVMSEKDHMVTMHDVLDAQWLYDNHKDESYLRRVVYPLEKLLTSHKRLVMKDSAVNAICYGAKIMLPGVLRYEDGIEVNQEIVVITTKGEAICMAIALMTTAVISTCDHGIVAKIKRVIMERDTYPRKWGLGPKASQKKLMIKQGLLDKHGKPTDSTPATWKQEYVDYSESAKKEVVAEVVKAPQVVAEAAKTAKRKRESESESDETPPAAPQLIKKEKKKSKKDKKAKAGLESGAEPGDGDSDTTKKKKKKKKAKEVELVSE
# Sequence (Q9NX24 whole entry partner): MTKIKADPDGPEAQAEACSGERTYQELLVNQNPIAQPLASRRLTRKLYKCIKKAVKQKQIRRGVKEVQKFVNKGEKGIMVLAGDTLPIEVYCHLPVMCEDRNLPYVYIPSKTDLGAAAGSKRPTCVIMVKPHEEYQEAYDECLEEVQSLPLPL
# Sequence (Q9NPE3 whole entry partner): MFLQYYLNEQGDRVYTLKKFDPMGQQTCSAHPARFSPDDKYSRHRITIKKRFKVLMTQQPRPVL
# Sequence (Q9NY12 whole entry partner): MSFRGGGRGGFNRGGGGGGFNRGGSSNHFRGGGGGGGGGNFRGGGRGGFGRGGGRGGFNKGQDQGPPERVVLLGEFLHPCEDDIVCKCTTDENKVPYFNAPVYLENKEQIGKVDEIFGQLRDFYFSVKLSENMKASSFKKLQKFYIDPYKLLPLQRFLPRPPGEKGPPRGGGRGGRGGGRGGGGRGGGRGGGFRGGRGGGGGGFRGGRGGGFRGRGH
# Sequence (Q9BUR4 whole entry partner): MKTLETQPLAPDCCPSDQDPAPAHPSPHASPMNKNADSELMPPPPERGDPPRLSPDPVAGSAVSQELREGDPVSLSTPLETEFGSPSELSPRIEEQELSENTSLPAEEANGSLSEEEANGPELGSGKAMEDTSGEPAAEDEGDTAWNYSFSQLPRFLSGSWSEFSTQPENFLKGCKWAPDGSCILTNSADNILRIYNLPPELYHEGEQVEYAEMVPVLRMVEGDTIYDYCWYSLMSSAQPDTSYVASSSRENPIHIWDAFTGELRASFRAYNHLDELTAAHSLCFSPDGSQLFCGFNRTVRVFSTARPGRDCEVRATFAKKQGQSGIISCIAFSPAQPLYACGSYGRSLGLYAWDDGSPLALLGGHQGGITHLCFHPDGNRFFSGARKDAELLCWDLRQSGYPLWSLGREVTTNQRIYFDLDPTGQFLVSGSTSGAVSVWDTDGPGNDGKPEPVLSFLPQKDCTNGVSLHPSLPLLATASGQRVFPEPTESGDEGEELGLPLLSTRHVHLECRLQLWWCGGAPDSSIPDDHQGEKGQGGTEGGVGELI
# Protocol Text: TRAP / RTQ-TRAP telomerase activity assay in A549 cell-free lysates
# Format: biochemical
# Study Conditions: telomerase inhibition, mean ± SEM
Reported Metric: IC90 (µM)

INSERT INTO measurements (compound, value_unit, readout_value) VALUES
  ('C/C(=C\C(=O)Nc1ccccc1C(=O)O)c1ccc2ccccc2c1', 'µM', 5.6),
  ('Cc1nn(-c2ccccc2)cc1/C=C(\C#N)C(=O)Nc1sc2c(c1C#N)CCC2 [Compound 33a]', 'µM', 643),
  ('Cc1nn(-c2ccccc2)cc1/C=C(\C#N)C(=O)Nc1sc2c(c1C#N)CCCC2 [Compound 33b]', 'µM', 574),
  ('N#C/C(=C\c1ccc(N2CCCCC2)cc1)C(=O)Nc1sc2c(c1C#N)CCCC2 [Compound 29b]', 'µM', 32.8),
  ('N#C/C(=C\c1ccc2c(c1)OCO2)C(=O)Nc1sc2c(c1C#N)CCC2 [Compound 38a]', 'µM', 282),
  ('COc1ccc(/C=C(\C#N)C(=O)Nc2sc3c(c2C#N)CCCC3)cc1OC [Compound 26b]', 'µM', 751),
  ('N#C/C(=C\c1ccc(C(F)(F)F)cc1)C(=O)Nc1sc2c(c1C#N)CCC2 [Compound 25a]', 'µM', 109),
  ('N#C/C(=C\c1c[nH]nc1-c1ccccc1)C(=O)Nc1sc2c(c1C#N)CCCC2 [Compound 34b]', 'µM', 284);

* * *

# Subject Of Test: telomerase (Homo sapiens)
# Construct: A549 cells (human epithelial cell lung carcinoma, ATCC, Manassas, VA) were lysed in
# Protocol Text: TRAP / RTQ-TRAP telomerase activity assay in A549 cell-free lysates
# Study Conditions: telomerase inhibition, mean ± SEM
We begin with a simple list: items and their reported IC50.
Reported Metric: IC50 (µM)

INSERT INTO assay_data (compound, readout_value) VALUES
  ('CN1CCN(c2ccc(/C=C(\C#N)C(=O)Nc3sc4c(c3C#N)CCC4)cc2)CC1 [Compound 31a]', 98.5),
  ('N#C/C(=C\c1ccc2ccccc2c1)C(=O)Nc1sc2c(c1C#N)CCC2 [Compound 36a]', 5.2),
  ('N#C/C(=C\c1c[nH]nc1-c1ccccc1)C(=O)Nc1sc2c(c1C#N)CCCC2 [Compound 34b]', 38.8),
  ('N#C/C(=C\c1ccc(N2CCCCC2)cc1)C(=O)Nc1sc2c(c1C#N)CCC2 [Compound 29a]', 1.7),
  ('Cc1nn(-c2ccccc2)cc1/C=C(\C#N)C(=O)Nc1sc2c(c1C#N)CCC2 [Compound 33a]', 205);

* * *

# Subject Of Test: telomerase (Homo sapiens)
# Construct: A549 cells (human epithelial cell lung carcinoma, ATCC, Manassas, VA) were lysed in; host or cells: A549 cell lysate (CHAPS extract, 5 µg total protein)
# Protocol Text: TRAP / RTQ-TRAP telomerase activity assay in A549 cell-free lysates
# Assay type: biochemical
# Study Conditions: telomerase inhibition, mean ± SEM
This section presents molecules with their documented IC90 values.
Reported Metric: IC90 (µM)

INSERT INTO assay_data (molecule, readout_value) VALUES
  ('N#C/C(=C\c1ccc2c(c1)OCO2)C(=O)Nc1sc2c(c1C#N)CCCC2 [Compound 38b]', 339),
  ('N#C/C(=C\c1ccc(Cl)c(Cl)c1)C(=O)Nc1sc2c(c1C#N)CCC2 [Compound 27a]', 164),
  ('N#C/C(=C\c1cccc2ccccc12)C(=O)Nc1sc2c(c1C#N)CCC2 [Compound 35a]', 31.1),
  ('N#C/C(=C\c1ccc(Cl)c(Cl)c1)C(=O)Nc1sc2c(c1C#N)CCCC2 [Compound 27b]', 138),
  ('COc1cc(/C=C(\C#N)C(=O)Nc2sc3c(c2C#N)CCCC3)ccc1OCc1ccccc1 [Compound 32b]', 181),
  ('N#C/C(=C\c1cccc(Cl)c1Cl)C(=O)Nc1sc2c(c1C#N)CCC2 [Compound 28a]', 67.8);

* * *

# Subject Of Test: telomerase (Homo sapiens)
# Construct: A549 cells (human epithelial cell lung carcinoma, ATCC, Manassas, VA) were lysed in
# Protocol Text: TRAP / RTQ-TRAP telomerase activity assay in A549 cell-free lysates;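 note: telomerase activity measured in cell-free extracts of human A549 epithelial lung carcinoma cells, tested across a range of inhibitor concentrations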
# Study Conditions: telomerase inhibition, mean ± SEM
Flag rule - IC50 less than 8 µM flags Condition met; the remaining entries get Condition not met.

INSERT INTO measurements (compound, answer_label) VALUES
  ('N#C/C(=C\c1cccc(Cl)c1Cl)C(=O)Nc1sc2c(c1C#N)CCCC2 [Compound 28b]', 'Condition not met'),
  ('N#C/C(=C\c1ccc(Cl)c(Cl)c1)C(=O)Nc1sc2c(c1C#N)CCC2 [Compound 27a]', 'Condition met'),
  ('COc1cc(/C=C(\C#N)C(=O)Nc2sc3c(c2C#N)CCCC3)ccc1OCc1ccccc1 [Compound 32b]', 'Condition not met'),
  ('N#C/C(=C\c1ccc(N2CCCCC2)cc1)C(=O)Nc1sc2c(c1C#N)CCCC2 [Compound 29b]', 'Condition met'),
  ('COc1ccc(/C=C(\C#N)C(=O)Nc2sc3c(c2C#N)CCC3)cc1OC [Compound 26a]', 'Condition not met');

Data origin: paper PMC9025901
